Test system: MDA-MB-435 melanoma
Assay: NCI-60 one-dose screen, 48 h (100 = growth as untreated, 0 = no growth, -100 = all killed)
Settings: 10 µM unless noted
The panel holds about 83,000 compounds, 20% with a hit somewhere; the sample as a whole holds those more often.
MEASURED ATTRIBUTE: growth (%)
Enter your answer as a number in %; do not include the unit.

Some molecules with recorded growth:
>  <MOLECULE>
Cn1c2c(c3ccc(Cl)c(Cl)c31)C(C#N)C1(CCNCC1)NC2=O (centres undefined)

>  <MEASURED ATTRIBUTE>
growth

>  <OBSERVED MEASUREMENT>
5.97

$$$$
>  <MOLECULE>
Cc1ccc(C(=O)COc2cccc(/C=C3\Oc4ccccc4C3=O)c2)cc1

>  <MEASURED ATTRIBUTE>
growth

>  <OBSERVED MEASUREMENT>
90.2

$$$$
>  <MOLECULE>
Cc1nc2ccccc2c(/C=C/c2ccc(Cl)cc2)c1C(=O)/C=C/c1ccc(F)cc1

>  <MEASURED ATTRIBUTE>
growth

>  <OBSERVED MEASUREMENT>
-21.3

$$$$
>  <MOLECULE>
CCCCCCCC/C=C\CCCCCCCCOc1ccccc1CC(=O)NCC[N+](C)(C)C

>  <MEASURED ATTRIBUTE>
growth

>  <OBSERVED MEASUREMENT>
95.6

$$$$
>  <MOLECULE>
C[n+]1cccc(CC(=O)NO)c1

>  <MEASURED ATTRIBUTE>
growth

>  <OBSERVED MEASUREMENT>
107

$$$$

Query :: Would you kindly share the measured growth for COc1ccc2[nH]c(O)c(/C=c3/cc4c(c(-c5ccc(F)c(OC)c5)n3)=Nc3ccccc3-4)c2c1 ?
Result :: 6.77

Query :: Any idea what its growth is? The molecule is O=C(NC(Cc1nnc2n(Cc3ccccc3)c(=O)c3c4c(sc3n12)CCCC4)c1ccc(Cl)cc1)c1ccccc1 (centres undefined)
Result :: 56.8

Query :: Quick one: growth of CS(=O)c1cccc(-c2ccc3nc(N)n(-c4ccc(C(F)(F)F)cc4)c(=O)c3c2)c1 (centres undefined) ?
Result :: 105

Query :: Entry COc1ccc(-c2nc3c(c(=O)n2C(C)=O)C(c2ccc(Cl)cc2)c2sc4c(Cl)cccc4c2O3)cc1 (centres undefined) : reported growth = ?
Result :: 0.072

====

System: HOP-62 NSCLC
Assay: NCI-60 one-dose screen, 48 h (100 = growth as untreated, 0 = no growth, -100 = all killed)
Settings: 10 µM unless noted
The panel holds about 83,000 compounds, 20% with a hit somewhere; the sample as a whole holds those more often.
Lab note - cut at 70% for growth: Met if strictly below, Not met if not.

>  <MOLECULE>
Fc1cnc(NC2CC2)nc1-c1cnc2ccc(N3CCOCC3)cn12

>  <GROUP>
Met

$$$$
>  <MOLECULE>
C=C(C)[C@@H]1CC=C2c3sc(-c4ccc(C)cc4)nc3C[C@@H](C)[C@]2(C)C1

>  <GROUP>
Not met

$$$$
>  <MOLECULE>
CN(C)CCC=C1c2ccccc2C(C)(C)c2ccccc21

>  <GROUP>
Met

$$$$
>  <MOLECULE>
Cc1ccccc1NC(=O)N/C(N)=N/c1nc(-c2cccc([N+](=O)[O-])c2)cs1

>  <GROUP>
Met

$$$$
>  <MOLECULE>
CN(C)CCCn1c(=O)c2ccccc2c2ccccc21

>  <GROUP>
Not met

$$$$

We next turn to a different molecule, shown below.
Query :: growth strictly < 70% for this molecule? N#C/C(=C\c1ccc(Br)cc1)n1nnc2cc(F)c(F)cc21
Result :: Met
